# credit: patent US9573887B2

system-name: Mouse VCP (Mus musculus, UniProt Q01853)
Construct: histidine tag (N); made in house; host or cells: Sf-9 insect cells (baculovirus vector pVL1392)
Sequence (Q01853 whole entry): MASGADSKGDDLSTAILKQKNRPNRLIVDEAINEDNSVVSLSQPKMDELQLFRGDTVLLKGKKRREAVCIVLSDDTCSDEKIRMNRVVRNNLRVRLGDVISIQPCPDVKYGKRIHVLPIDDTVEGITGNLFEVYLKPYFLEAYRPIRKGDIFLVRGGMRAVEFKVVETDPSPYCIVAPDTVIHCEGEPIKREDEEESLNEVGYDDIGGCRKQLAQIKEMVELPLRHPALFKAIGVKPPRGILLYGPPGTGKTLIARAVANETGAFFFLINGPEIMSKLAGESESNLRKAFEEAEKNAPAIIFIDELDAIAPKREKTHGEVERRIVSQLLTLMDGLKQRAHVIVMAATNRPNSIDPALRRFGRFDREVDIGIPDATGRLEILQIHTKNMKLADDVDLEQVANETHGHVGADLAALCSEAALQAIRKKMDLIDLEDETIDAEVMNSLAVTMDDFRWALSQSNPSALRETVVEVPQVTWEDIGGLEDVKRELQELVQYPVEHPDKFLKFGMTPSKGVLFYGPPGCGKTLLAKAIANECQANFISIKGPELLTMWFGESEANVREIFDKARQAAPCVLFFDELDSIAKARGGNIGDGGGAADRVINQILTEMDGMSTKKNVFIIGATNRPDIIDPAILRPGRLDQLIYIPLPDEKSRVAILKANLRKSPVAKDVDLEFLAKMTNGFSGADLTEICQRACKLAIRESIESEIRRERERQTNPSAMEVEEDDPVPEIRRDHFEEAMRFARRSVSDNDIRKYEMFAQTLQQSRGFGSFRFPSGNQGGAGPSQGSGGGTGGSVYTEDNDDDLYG
assay-explanation: ATPase activity of purified His-tagged VCP, [γ-32P]ATP, liberated phosphate by liquid scintillation
Type: biochemical
setup-conditions: compounds of Examples; ATPase inhibitory activity; 500 ng VCP, 100 μM ATP, 37° C., 10 minutes
Where a name gives a salt, the structure may show the parent alone.
measured-parameter: IC50

Worked examples follow.
Cc1cc(F)ccc1-c1ccc(/N=N/c2cc(S(=O)(=O)O)c3ccccc3c2N)cc1F [Example 144, sodium salt]    199 nM
Nc1c(/N=N/c2ccc(Br)cc2Br)cc(S(=O)(=O)O)c2ccccc12 [Example 113, sodium salt]    266 nM
Nc1c(/N=N/c2cccc(C(=O)c3ccccc3)c2)cc(S(=O)(=O)O)c2ccccc12 [Example 130, sodium salt]    260 nM

--- query ---
Reported IC50 of N#Cc1cccc(-c2ccc(/N=N/c3cc(S(=O)(=O)O)c4ccccc4c3N)cn2)c1 [Example 44, sodium salt] : 584 nM
